# Assay System: human GPR35 (Homo sapiens)
# Sequence (Q9HC97 whole entry): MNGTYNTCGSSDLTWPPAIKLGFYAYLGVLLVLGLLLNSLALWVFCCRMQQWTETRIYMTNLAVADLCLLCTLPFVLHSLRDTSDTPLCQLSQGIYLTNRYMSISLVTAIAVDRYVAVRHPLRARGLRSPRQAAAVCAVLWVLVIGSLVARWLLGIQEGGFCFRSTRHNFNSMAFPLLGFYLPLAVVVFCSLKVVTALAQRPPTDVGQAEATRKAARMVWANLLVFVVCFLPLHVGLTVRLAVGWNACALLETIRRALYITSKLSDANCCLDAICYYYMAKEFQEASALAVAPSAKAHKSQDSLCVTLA
# Assay Summary: Luciferase Reporter Assay (YAP responsive element) in HEK293 cells stably transfected with human GPR35
# Condition Label: overnight incubation
Experimental Endpoint: IC50

>>> test_value("O=C(Nc1ccc(OC2CCCC2)c(F)c1)c1coc2cc(-c3nnn[nH]3)ccc12 [Compound 1-1]")
"≤ 100 nM"
>>> test_value("C[C@H](Oc1ccc(NC(=O)c2coc3cc(-c4nnn[nH]4)c(F)cc23)cc1F)C(F)(F)F (single isomer, unassigned) [Compound 1-30]")
"≤ 100 nM"
>>> test_value("O=C(Nc1ccc(OCc2ccc(Cl)c(F)c2)cc1)c1coc2cc(-c3nnn[nH]3)c(F)cc12 [Compound 1-49]")
"≤ 100 nM"

Moving on to another compound below.
## Task What value of IC50 has been reported for the following compound? O=C(Nc1ccc(OCc2ccc(F)cc2Cl)cc1)c1coc2cc(Oc3nnn[nH]3)c(F)cc12 [Compound 1-39]
## Result 100 to 1000 nM

These data points were gathered from patent US20250214976A1.
